These data points were gathered from ChEMBL document CHEMBL3621126.

- TESTED ON: Acetylcholinesterase (Anopheles gambiae)
- Sequence (Q869C3 whole entry): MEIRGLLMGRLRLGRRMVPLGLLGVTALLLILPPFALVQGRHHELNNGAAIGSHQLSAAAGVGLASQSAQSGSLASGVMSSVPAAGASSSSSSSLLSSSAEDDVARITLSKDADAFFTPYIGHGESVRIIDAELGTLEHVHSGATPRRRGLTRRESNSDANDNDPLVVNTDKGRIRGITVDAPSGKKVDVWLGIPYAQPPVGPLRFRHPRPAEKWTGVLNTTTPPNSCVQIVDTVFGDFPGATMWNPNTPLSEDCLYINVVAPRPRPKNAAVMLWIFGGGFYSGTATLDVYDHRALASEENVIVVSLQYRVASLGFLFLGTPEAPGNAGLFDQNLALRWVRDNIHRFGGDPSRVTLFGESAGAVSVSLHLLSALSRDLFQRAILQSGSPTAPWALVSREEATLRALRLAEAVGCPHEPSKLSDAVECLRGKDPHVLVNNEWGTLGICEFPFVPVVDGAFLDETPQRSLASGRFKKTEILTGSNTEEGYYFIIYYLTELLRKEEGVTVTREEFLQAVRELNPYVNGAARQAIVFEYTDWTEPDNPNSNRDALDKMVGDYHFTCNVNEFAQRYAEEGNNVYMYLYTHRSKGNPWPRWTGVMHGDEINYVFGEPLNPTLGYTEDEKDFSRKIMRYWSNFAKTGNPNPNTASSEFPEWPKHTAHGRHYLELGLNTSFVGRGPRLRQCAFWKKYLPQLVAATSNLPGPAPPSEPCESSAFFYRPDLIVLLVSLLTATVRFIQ
- METHOD SUMMARY: Inhibition of recombinant Anopheles gambiae wild type AChE after 60 mins by Ellman assay
# IC50 annotations

For orientation, consider the following solved cases.
>  <COMPOUND>
CCC(CC)n1cc(C(=O)C(F)(F)F)cn1

>  <IC50>
0.68 nM

$$$$
>  <COMPOUND>
CCC(CC)n1cc(C(=O)C(F)F)cn1

>  <IC50>
1.22 nM

$$$$
>  <COMPOUND>
O=C(CF)c1cnn(C2CCCC2)c1

>  <IC50>
1540 nM

$$$$

Req: Requested field: IC50. Item: `CC(C)Cn1cc(C(=O)C(F)(F)F)cn1`
Resp: 1040 nM

Req: # IC50 lookup, item `CC(C)n1cc(C(=O)C(F)F)cn1`
Resp: 430 nM

Req: If you can, please state the reported IC50 value of `CC(C)n1cc(C(=O)CF)cn1` .
Resp: > 10000 nM

Req: Field request: IC50 | item: CCC(C)n1cc(C(=O)CF)cn1 (stereo not drawn)
Resp: 2860 nM

Req: Any idea what its IC50 is? The compound is CCC(C)n1cc(C(=O)C(F)(F)F)cn1 (stereo not drawn)
Resp: 2.29 nM
